Across several publications, the following IC50 results were reported for UniProtKB O60341.

Worked cases, IC50 given:
>  <Molecule>
Cc1ccc(-c2c(-c3ccc(C#N)cc3)nc(N3CCC(N)CC3)c(=O)n2CCO)cc1

>  <IC50>
< 100 nM

$$$$
>  <Molecule>
COc1ccc(-c2c(-c3ccc(C#N)c(F)c3)nc3c(NC4CCNC4)nccn23)cc1F (centres unmarked)

>  <IC50>
15 nM

$$$$
>  <Molecule>
COc1ccc(-c2c(-c3ccc(C#N)c(F)c3)nc(N3CCC(N)CC3)[nH]c2=O)cc1

>  <IC50>
< 100 nM

$$$$
>  <Molecule>
Cn1cc2cc(-c3c(-c4ccc(C#N)c(F)c4)cc(C(=O)N4CCC[C@@H](N)C4)n3C)ccc2n1

>  <IC50>
< 100 nM

$$$$
>  <Molecule>
CN[C@H]1CCN(C(=O)c2nc(-c3ccc(C#N)c(F)c3)n(-c3ccc(OC)cc3)c2F)C1

>  <IC50>
< 100 nM

$$$$
>  <Molecule>
Cc1ccc(-c2c(-c3ccc(C#N)c(F)c3)cc(C(=O)N3CCC[C@@H](N)C3)n2CCO)cc1

>  <IC50>
< 100 nM

$$$$
>  <Molecule>
N#Cc1ccc(-c2cc(NC[C@@H]3CCC[C@@H](N)C3)nn2-c2ccc(C(=O)N3CCCC3)cc2)cc1F

>  <IC50>
1000 to 10000 nM

$$$$
>  <Molecule>
N#Cc1ccc(-c2nc3c(N4CCC[C@@H](N)C4)ccnc3n2-c2ccc(N3CCCCC3)cc2)cc1F

>  <IC50>
38 nM

$$$$
>  <Molecule>
COc1ccc(-n2c(-c3ccc(C#N)c(F)c3)nc(C(=O)N3CC[C@H](N)C3)c2C)cc1

>  <IC50>
< 100 nM

$$$$
>  <Molecule>
CN[C@H]1CCN(C(=O)c2nc(-c3ccc(C#N)c(F)c3)n(-c3ccc(OC)c(F)c3)c2C)C1

>  <IC50>
< 100 nM

$$$$

Incoming: What measured IC50 is associated with `CN(C)S(=O)(=O)c1ccc(-n2cc(CCCN[C@@H]3C[C@H]3c3ccc(F)cc3)nc(N3CCNCC3)c2=O)cc1` on UniProtKB O60341?
Outgoing: 10 nM

Incoming: What measured IC50 is associated with FC1CC(CN[C@H]2CC2c2ccccc2)(c2cccnc2)C1 (some centres unmarked) on UniProtKB O60341?
Outgoing: ≤ 50 nM
